The reader will find reported FACS MFI values listed item by item below.
TARGET SYSTEM: T1, human CD24 (human, UniProt P25063 27-59, heavily glycosylated, GPI-anchored (as described in the background))
T1 construct: whole, on cells; Target of all cell-based FACS assays; also called hCD24; Cluster of differentiation 24
T1 chain (looked up): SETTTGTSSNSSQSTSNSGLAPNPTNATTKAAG
EXPERIMENT DESCRIPTION: FACS, MDA-MB-468 cells
Just the number, please, no unit after it.

>>> experimental_result("71A4F12 (antibody, V domains shown, mouse monoclonal antibody) VH: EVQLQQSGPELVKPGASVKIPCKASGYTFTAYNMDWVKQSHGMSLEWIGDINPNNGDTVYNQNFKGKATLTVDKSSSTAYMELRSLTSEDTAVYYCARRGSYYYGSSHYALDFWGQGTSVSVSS VL: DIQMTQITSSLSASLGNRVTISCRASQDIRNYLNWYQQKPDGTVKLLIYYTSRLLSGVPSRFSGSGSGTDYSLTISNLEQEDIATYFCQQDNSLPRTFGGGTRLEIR")
32500
>>> experimental_result("56A7E3 (antibody, V domains shown, mouse monoclonal antibody) VH: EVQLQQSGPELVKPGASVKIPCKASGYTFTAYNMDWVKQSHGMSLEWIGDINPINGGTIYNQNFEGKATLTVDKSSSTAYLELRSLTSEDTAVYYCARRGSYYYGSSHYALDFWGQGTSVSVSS VL: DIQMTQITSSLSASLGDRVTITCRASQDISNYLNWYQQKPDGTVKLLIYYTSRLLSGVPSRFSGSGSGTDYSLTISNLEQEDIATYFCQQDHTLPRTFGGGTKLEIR")
15300

Next up:
Need FACS MFI, item 81A1F8 (antibody, V domains shown, mouse monoclonal antibody) VH: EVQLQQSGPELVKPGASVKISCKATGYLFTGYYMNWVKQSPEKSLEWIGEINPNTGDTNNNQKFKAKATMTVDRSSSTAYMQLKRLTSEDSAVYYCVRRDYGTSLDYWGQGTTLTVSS VL: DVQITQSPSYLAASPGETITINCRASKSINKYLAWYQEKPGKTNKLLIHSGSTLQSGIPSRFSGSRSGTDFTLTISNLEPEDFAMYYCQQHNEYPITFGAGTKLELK
24900

src = patent US20240052052A1
